Measured GI50 accompanies every entry in the list below.
tested on: Malme-3M; experiment: NCI tumour cell line growth inhibition, 48 h
Active and inactive are the calls of the source. Rule as the data show it: active = GI50 up to about 1.1 µM and inactive = higher.

// below: answered compounds
COC(=O)CC(NC(=O)OCc1ccccc1)C(C(=O)OCc1ccccc1)C(C)(OC)OC (stereo not given): 28 µM (inactive)
Cc1ccccc1C1CC(=O)CC(c2ccccc2C)C12C(=O)NC(=S)NC2=O (stereo not given): 25.6 µM (inactive)
Cc1ccc(NNc2cc(=O)[nH]c(=O)[nH]2)cc1Cl: 17.8 µM (inactive)
Cc1ccc2c(c1)C(=O)/C(=N/Nc1ccc(Cl)cc1)CCO2: 46.7 µM (inactive)

Kindly review the next compound as well.
Inquiry: Endpoint output: GI50 of Cc1cc(-c2ccc(C(=O)C(c3ccccc3)(c3ccccc3)c3ccccc3)[nH]2)on1 . Value?
Reply text: 31.4 µM (inactive)

###

system: U-251; assay: NCI tumour cell line growth inhibition, 48 h
Active and inactive are the calls of the source. No stated cut-off is given here; in the data, active = GI50 up to about 1.1 µM and inactive = higher.
Hi there, use one of these labels in your reply, thanks! Yes (active), No (inactive)

Inquiry: Hi, do you know how O=[N+]([O-])c1ccc(Sc2c3ccccc3nc3ccccc23)nc1 came out in this test?
Reply text: No

Inquiry: Hi, do you know how C/C(=N\NC(=S)N1CC2CCC(CC2)C1)c1nccs1 came out in this test?
Reply text: Yes

Inquiry: Hi, do you know how N#CCCN(c1ccc(/C=N/c2ccc(C(=O)O)cc2)cc1)S(=O)(=O)c1ccccc1 came out in this test?
Reply text: No

Inquiry: Hi, do you know how CC1CC/C(=C\c2ccc(Cl)cc2)c2nc(N)c(C#N)c(-c3ccc(Cl)cc3)c21 (stereo not given) came out in this test?
Reply text: No

Inquiry: Hi, do you know how Nc1ccc(Oc2ccc(C34CC5C6CC7(c8ccc(Oc9ccc(N)cc9)cc8)CC5C(C3)C(C7)C6C4)cc2)cc1 came out in this test?
Reply text: No

Inquiry: Hi, do you know how O=c1[nH]c2ccccc2c2oc(-c3ccccc3)nc12 came out in this test?
Reply text: No

Inquiry: Hi, do you know how O=C1c2ccccc2C(=O)N1[C@@H](Cc1ccccc1)C(=O)n1cccc1CO came out in this test?
Reply text: No

Inquiry: Hi, do you know how C1CCCCC2(CCCCCCCCC3(CCC1)OCCO3)OCCO2 came out in this test?
Reply text: No

Inquiry: Hi, do you know how COC12C=CC(CC1)c1c(O)ccc(O)c12 (stereo not given) came out in this test?
Reply text: No

Inquiry: Hi, do you know how O=C(CN1CCCCC1)CC(O)(C(F)(F)F)C(F)(F)F came out in this test?
Reply text: No

###

tested on: RXF 631; experiment: NCI tumour cell line growth inhibition, 48 h
Activity calls are given as the source filed them. Rule as the data show it: active = GI50 up to about 1.1 µM and inactive = higher.
Hi there, use one of these labels in your reply, thanks! active, inactive

C/C(=N\NC(=S)N1CC2CCC(CC2)C1)c1nccs1: active
[O-][Cl+3]([O-])([O-])[O-].c1ccc(-c2[o+]c(-c3ccccc3)c(-c3ccccc3)c(-c3ccccc3)c2-c2ccccc2)cc1: inactive
COc1cc(NCC(C#N)C#N)ccc1/N=N/c1ccc(Cl)cc1: inactive
O=C1/C(=C/c2ccc(Cl)cc2)COc2ccc(Br)cc21: inactive
O=[N+]([O-])c1ccc(C2=Nn3c(nnc3-c3ccc(Cl)cc3)SC2)o1: inactive
C#C[C@@H](CCCC)OC(=O)N[C@H](C)c1ccccc1: inactive
CCOC(=O)/N=c1/nc(N(C)C)ss1: inactive
Clc1ccc2[nH]c(CCSCCc3nc4ccc(Cl)cc4[nH]3)nc2c1: inactive

Let us examine a further case.
Inquiry: Hi, do you know how C[Si]1(C)C(c2ccccc2)=CC2C(c3ccccc3)(c3ccccc3)OC21c1ccccc1 (stereo not drawn) came out in this test?
Reply text: inactive

###

test system: SF-539; test: NCI tumour cell line growth inhibition, 48 h
Calls of active or inactive are those of the source. Rule as the data show it: active = GI50 up to about 1.1 µM and inactive = higher.
Hi there, use one of these labels in your reply, thanks! T = active, F = inactive

Some solved cases for reference:
Clc1ccc2[nH]c(CCSCCc3nc4ccc(Cl)cc4[nH]3)nc2c1: F
CC(=O)O[C@H]1C(=O)[C@@]2(C)[C@H]([C@H](OC(=O)c3cccc([N+](=O)[O-])c3)[C@]3(O)C[C@H](OC(=O)[C@H](O)[C@@H](NC(=O)c4ccccc4)c4ccccc4)C(C)=C1C3(C)C)[C@]1(OC(C)=O)CO[C@@H]1C[C@@H]2O: T
C=CCCON(C(=O)OC(C)(C)C)C(C)(C)C: F
[N-]=[N+]=NC1=CC(=O)c2cccc3cccc1c23: F
C/C(=C(/C)c1cc[n+](C)cc1)c1cc[n+](C)cc1: F
CC(=O)OC[C@@]12C[C@H]3C(=O)C(C)(C)C[C@H]3[C@]1(C)[C@@H](OC(C)=O)[C@]1(O)[C@H]([C@@H](OC(=O)c3ccccc3)[C@@H](C)[C@H]1OC(C)=O)[C@H]2OC(C)=O: F
CC1=CC[C@](C)(O)[C@@]2(C)CC[C@H]3C(=C(C)C)C(=O)C[C@]3(C)C[C@H]12: F
Cc1c2ccnc(C(F)(F)F)c2cc2c1[nH]c1ccccc12: F

Inquiry: Hi, do you know how CN(C)CCCNc1ccnc2cccc([N+](=O)[O-])c12 came out in this test?
Reply text: F

Inquiry: Hi, do you know how CCOC(=O)c1ccc(Nc2nc3ccccc3nc2-c2cccs2)cc1 came out in this test?
Reply text: F

Inquiry: Hi, do you know how NC(=O)NCCCC(NC(=O)OCCCCCn1ccc(=O)[nH]c1=O)C(=O)O (centres undefined) came out in this test?
Reply text: F

Inquiry: Hi, do you know how O=c1cc(-c2ccccc2)[nH]c2cc(Cl)cc(Cl)c12 came out in this test?
Reply text: F

###

Measured GI50 accompanies every entry in the list below.
tested on: ACHN; experiment: NCI tumour cell line growth inhibition, 48 h
Calls of active or inactive are those of the source. Rule as the data show it: active = GI50 up to about 1.1 µM and inactive = higher. Peptide text beside a SMILES is read from it. * marks the point of attachment. Boc = CC(C)(C)OC(=O)*; OBn = c1ccc(CO*)cc1

// below: answered compounds
O=C1c2cc([N+](=O)[O-])ccc2-c2cccc(F)c21: > 100 µM (inactive)
O=C(O)CCCc1cc2c(s1)-c1cccc3cccc-2c13: 22.4 µM (inactive)
Cc1cccc2c1CC(C1OC(=O)c3ccccc31)C2=O (stereo not given): > 100 µM (inactive)
O=C1c2c(nc3ccccc3c2-c2ccccc2)CN1Nc1ccccn1: 43.7 µM (inactive)

Inquiry: Endpoint output: GI50 of CC(C)CC(NC(=O)OC(C)(C)C)C(=O)NC(CC(=O)OCc1ccccc1)C(N)=O (stereo not drawn) (Boc-Leu-Asp(OBn)-NH2; configuration not given here) . Value?
Reply text: > 100 µM (inactive)

###

system: IGROV-1; experiment: NCI tumour cell line growth inhibition, 48 h
Calls of active or inactive are those of the source. No stated cut-off is given here; in the data, active = GI50 up to about 1.1 µM and inactive = higher.
Hi there, use one of these labels in your reply, thanks! active, inactive

Cc1cc(O)nc(NNC(C#N)c2cccc([N+](=O)[O-])c2)n1 (stereo unspecified): inactive

Let us examine a further case.
Inquiry: Hi, do you know how Cc1nnc2c3nnc(C)n3c3ccccc3n12 came out in this test?
Reply text: inactive

###

tested on: SK-MEL-2; assay: NCI tumour cell line growth inhibition, 48 h
Active and inactive are the calls of the source. Cut-off read from the data, not from the text of the source: active = GI50 up to about 1.1 µM and inactive = higher.
Measured GI50 accompanies every entry in the list below.

Nc1ccc2c(c1)C(=O)N(OS(=O)(=O)c1ccccc1)C2=O: > 100 µM (inactive)
CN/C(=N\N=C1/C(=O)Nc2ccccc21)SCC(=O)c1ccc(Br)cc1: 50 µM (inactive)
C=C(C)C1CC2(C)C(C)CC(O)CC2C(OC(=O)C=C(C)C)C1O (configuration not stated): 61.5 µM (inactive)
Cc1c(C#N)c2nnn(C)c(=O)n2c1-c1ccccc1: > 100 µM (inactive)
CC(C)C1=CC(=O)C(C)(C2=NC(C)(C)CO2)c2ccccc21 (configuration not stated): > 100 µM (inactive)

Inquiry: For SK-MEL-2, provide GI50 of O=C1/C(=N\NC(=S)NC2CCCCC2)c2cc([N+](=O)[O-])ccc2N1CN1CCOCC1 please.
Reply text: 11.7 µM (inactive)

Inquiry: For SK-MEL-2, provide GI50 of Cc1ccc(/C=C2\CN(C)CC3=C2N=C(S)NC3c2ccc(C)cc2)cc1 (configuration not stated) please.
Reply text: 51.3 µM (inactive)

Inquiry: For SK-MEL-2, provide GI50 of CC(C)C1CNC2N1C(=O)C2(C)OCc1ccccc1 (configuration not stated) please.
Reply text: > 100 µM (inactive)

Inquiry: For SK-MEL-2, provide GI50 of CCOC(=O)COc1ccc(OCC(=O)OCC)c2c1C(=O)CCCC2=O please.
Reply text: > 100 µM (inactive)

Inquiry: For SK-MEL-2, provide GI50 of CCOc1ccccc1/N=N/c1ccc2oc(=O)c(C(C)=O)cc2c1 please.
Reply text: 71 µM (inactive)

Inquiry: For SK-MEL-2, provide GI50 of Nc1ccc(Oc2ccc(C34CC5C6CC7(c8ccc(Oc9ccc(N)cc9)cc8)CC5C(C3)C(C7)C6C4)cc2)cc1 please.
Reply text: > 100 µM (inactive)

Inquiry: For SK-MEL-2, provide GI50 of O=CC[C@H]1C(=O)C[C@@H]2CCC[C@@H]21 please.
Reply text: 59.2 µM (inactive)

Inquiry: For SK-MEL-2, provide GI50 of Cc1nnc2c3nnc(C)n3c3ccccc3n12 please.
Reply text: > 100 µM (inactive)

Inquiry: For SK-MEL-2, provide GI50 of CSC(=S)Nc1cccc(C)n1 please.
Reply text: > 100 µM (inactive)

Inquiry: For SK-MEL-2, provide GI50 of O=C1c2c(nc3ccccc3c2-c2ccccc2)CN1Nc1ccccn1 please.
Reply text: > 100 µM (inactive)

Inquiry: For SK-MEL-2, provide GI50 of Cc1cc(-c2ccc(C(=O)C(c3ccccc3)(c3ccccc3)c3ccccc3)[nH]2)on1 please.
Reply text: 14.6 µM (inactive)

Inquiry: For SK-MEL-2, provide GI50 of NC(=O)c1cc(N(CCO)CCO)c([N+](=O)[O-])cc1[N+](=O)[O-] please.
Reply text: > 100 µM (inactive)
